Reported PBM E-score values follow for various sequences
targetOrTestSystem: Cst6 (UniProt P40535)
Sequence (P40535 whole entry): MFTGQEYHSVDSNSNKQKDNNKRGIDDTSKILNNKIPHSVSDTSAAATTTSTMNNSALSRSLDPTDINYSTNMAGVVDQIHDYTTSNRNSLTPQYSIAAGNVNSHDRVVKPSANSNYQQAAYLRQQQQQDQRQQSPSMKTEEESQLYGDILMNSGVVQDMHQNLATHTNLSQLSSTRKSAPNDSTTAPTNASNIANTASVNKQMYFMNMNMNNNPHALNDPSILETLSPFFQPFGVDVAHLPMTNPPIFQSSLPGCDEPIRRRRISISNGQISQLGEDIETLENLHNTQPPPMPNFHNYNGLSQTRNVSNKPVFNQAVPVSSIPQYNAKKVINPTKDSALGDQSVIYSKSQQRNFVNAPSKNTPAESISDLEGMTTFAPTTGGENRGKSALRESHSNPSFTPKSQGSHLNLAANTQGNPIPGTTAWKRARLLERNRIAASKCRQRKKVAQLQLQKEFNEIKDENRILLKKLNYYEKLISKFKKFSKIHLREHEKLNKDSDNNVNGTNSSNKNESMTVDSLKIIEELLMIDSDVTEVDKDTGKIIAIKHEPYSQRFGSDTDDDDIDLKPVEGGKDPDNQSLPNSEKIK
assayProcedure: PBM E-score (8-mer binding enrichment) (E-score (-0.5 to 0.5)); higher = stronger / more preferred TF binding
statedConditions: protein concentration: 200 nM; construct: GST-DNA-binding domain
Over roughly 33,000 sequences, “E-score (-0.5 to 0.5)” has its median near -0.016; the highest 2% begin near 0.31. The sample as a whole holds a higher share of the highest values than the screen did.

Take a look at these entries with their results.
sequenceChain	PBM E-score
CAAACTCA	0.0635
GCCGCGGA	0.0146
GACGCGGC	0.318
GTACCAGA	-0.199
CAATAGGA	-0.0291

Q: Give PBM E-score for the following sequence: ACGGCTCC
A: 0.256

Q: State its PBM E-score: AAAATAAC
A: 0.178

* * *

Collected PBM E-score values appear next to each entry.
targetOrTestSystem: Cst6 (UniProt P40535)
assayProcedure: PBM E-score (8-mer binding enrichment) (E-score (-0.5 to 0.5)); higher = stronger / more preferred TF binding
statedConditions: protein concentration: 200 nM; construct: GST-DNA-binding domain
The full ranking holds about 33,000 sequences; the median of “E-score (-0.5 to 0.5)” is about -0.016, and the highest 2% start at about 0.31. Many of the other results were omitted from the sample, so the highest values are more common in it than they were.
Provide a numeric answer; units are not to be included.

Use the examples below as a reference point.
sequenceChain	targetOrTestSystem	PBM E-score
CTAGATTC	Cst6 (UniProt P40535)	-0.0987
AGGTCACC	Cst6 (UniProt P40535)	0.0958
ATGTCAAT	Cst6 (UniProt P40535)	0.26
ACGTATTG	Cst6 (UniProt P40535)	0.238
CGTAATGA	Cst6 (UniProt P40535)	0.402
CGCCATGC	Cst6 (UniProt P40535)	0.0733
CCATTACC	Cst6 (UniProt P40535)	-0.00808
CGGCGCCC	Cst6 (UniProt P40535)	0.143

Q: Indicate its recorded PBM E-score; the sequence in question is ACATGGGT
A: 0.00268

Q: Tell me measured PBM E-score for GAACGGCC please.
A: -0.183

Q: Give the reported value of PBM E-score for this record: CCAGGCGA
A: -0.317

Q: Give the reported PBM E-score for this sequence. AACGCCGC
A: 0.361

Q: Report PBM E-score for CGGCGCCA
A: 0.161

Q: Identify the reported PBM E-score for the following entry. CACTTACC
A: 0.0685

Q: Give PBM E-score for the following sequence: CACGCCGC
A: 0.0528

Q: Please report the measured PBM E-score for TATTAATA
A: 0.0736

Q: Note PBM E-score for the sequence shown: GCGTATTA
A: 0.0768

Q: Kindly indicate its recorded PBM E-score. Item: AGCCACAG
A: -0.232

Q: Entry CAATTACG needs its PBM E-score filled in; supply it.
A: 0.346

Q: Using the record for GATGCACC , state its measured PBM E-score.
A: -0.163

Q: Quick one: give measured PBM E-score for AGGTCAAT
A: 0.0479

Q: Answer with reported PBM E-score of GCACGGCA
A: 0.353

Q: Could you please provide reported PBM E-score for TACGTACA ? Thanks!
A: 0.336

Q: Please give measured PBM E-score of the following entry: AGTAATGC
A: 0.0951

Q: Query PBM E-score for AACGCCGT
A: 0.373

Q: Read the entry AAATTACG and write its reported PBM E-score.
A: 0.336

Q: Please indicate PBM E-score recorded for CATCTATA
A: 0.162

Q: Specify measured PBM E-score for CGGCGCCG .
A: 0.384
